- System: ~100 representative kinases
- measurement_notes: DSF 100 kinase selectivity screen;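 also: compound tested at 20 µM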
- Type: binding
- experimental_parameters: Protein BRD; average of three replicates
measured_attribute: dTm (K)

Consider the molecule CC(C)(C)c1cc(NC(=O)Nc2cccc(-c3c[nH]c4ncnc(N5CCOCC5)c34)c2)n(-c2ccc3ncccc3c2)n1 tested on ~100 representative kinases; state its dTm.
-0.0106

I. Cc1ccc(C(=O)Nc2ccc(CN3CCN(C)CC3)c(C(F)(F)F)c2)cc1C#Cc1c[nH]c2ncnc(N3CCOCC3)c12
II. Cc1cc(F)ccc1NC(=O)C1(C(=O)Nc2cccc(-c3c[nH]c4ncnc(N5CCOCC5)c34)c2)CC1
I'm curious whether I or II has the smaller dTm number. Which is it? Give the label under which the chosen entry appears.
II

A. COc1ccc(NC(=O)C2(C(=O)Nc3cccc(-c4c[nH]c5ncnc(N6CCOCC6)c45)c3)CC2)cc1
B. COc1cc(S(C)(=O)=O)ccc1Nc1nc(N(C)C)c2c(Cl)c[nH]c2n1
Hi team, can someone confirm which has the larger dTm: A or B ? Thanks. Give the label under which the chosen entry appears.
B
(B: 0.52 K, A: -2.19 K)

1. CCNc1nc(Nc2cc(F)c(C(=O)N3CCOCC3)cc2OC)ncc1C(F)(F)F
2. O=C(Nc1ccc(F)cc1)C1(C(=O)Nc2cccc(-c3c[nH]c4ncnc(N5CCOCC5)c34)c2)CC1
I'm curious whether 1 or 2 has the smaller dTm number. Which is it? Give the label under which the chosen entry appears.
2
(2: -1.00 K, 1: -0.21 K)

* * *

- subject_of_test: ~100 representative kinases (Homo sapiens, UniProt Q00536)
- Construct: Recombinant protein kinase domains with a concentration of 2 μM
- Sequence (Q00536 whole entry, the tested form may be a part): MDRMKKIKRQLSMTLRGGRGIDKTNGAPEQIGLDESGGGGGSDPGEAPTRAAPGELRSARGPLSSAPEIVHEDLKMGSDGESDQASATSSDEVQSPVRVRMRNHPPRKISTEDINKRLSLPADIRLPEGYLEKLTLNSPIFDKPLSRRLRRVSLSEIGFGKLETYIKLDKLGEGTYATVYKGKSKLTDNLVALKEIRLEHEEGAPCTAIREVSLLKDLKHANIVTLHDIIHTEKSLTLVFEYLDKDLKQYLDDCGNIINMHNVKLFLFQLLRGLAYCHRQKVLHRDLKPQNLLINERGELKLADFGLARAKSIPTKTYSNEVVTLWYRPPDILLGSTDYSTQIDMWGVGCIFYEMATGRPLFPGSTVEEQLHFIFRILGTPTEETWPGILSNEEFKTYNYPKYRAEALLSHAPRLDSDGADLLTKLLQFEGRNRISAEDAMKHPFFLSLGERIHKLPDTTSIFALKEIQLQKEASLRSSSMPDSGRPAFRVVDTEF
- measurement_notes: DSF 100 kinase selectivity screen;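 also: compound tested at 20 µM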
- Type: binding
- experimental_parameters: protein PCTK1; average of three replicates
measured_attribute: dTm (K)

Consider the compound O=C(Nc1cccc(-c2c[nH]c3ncnc(N4CCOCC4)c23)c1)C1(C(=O)Nc2ccc(F)c(Br)c2)CC1 tested on ~100 representative kinases (Homo sapiens, UniProt Q00536); state its dTm.
4.12

Consider the compound CNC(=O)c1cc(Oc2ccc(NC(=O)Nc3cc(C(C)(C)C)nn3-c3ccc4ncccc4c3)c(F)c2)ccn1 [Rebastinib, reference compound] tested on ~100 representative kinases (Homo sapiens, UniProt Q00536); state its dTm.
13.62

Consider the compound CC(C)(C)c1cc(NC(=O)Nc2cccc(-c3c[nH]c4ncnc(N5CCOCC5)c34)c2)n(-c2ccc3ncccc3c2)n1 tested on ~100 representative kinases (Homo sapiens, UniProt Q00536); state its dTm.
15.55

Consider the compound O=C(Nc1cccc(-c2c[nH]c3ncnc(N4CCOCC4)c23)c1)C1(C(=O)Nc2ccc(F)cc2F)CC1 tested on ~100 representative kinases (Homo sapiens, UniProt Q00536); state its dTm.
4.13

Consider the compound Cc1cc(NC(=O)C2(C(=O)Nc3cccc(-c4c[nH]c5ncnc(N6CCOCC6)c45)c3)CC2)ccc1F tested on ~100 representative kinases (Homo sapiens, UniProt Q00536); state its dTm.
8.82

I. CCNc1nc(Nc2cc(F)c(C(=O)N3CCOCC3)cc2OC)ncc1C(F)(F)F
II. COc1cc(NC(=O)C2(C(=O)Nc3cccc(-c4c[nH]c5ncnc(N6CCOCC6)c45)c3)CC2)ccc1F
I'm curious whether I or II has the smaller dTm number. Which is it? Give the label under which the chosen entry appears.
I
(I: 0.61 K, II: 6.37 K)
